biological target: Protein FosB (Mus musculus); assay: enhancers of mouse delta FosB DNA binding – biochemical, fluorescence polarization, TAMRA-CDK5 oligo, single point, primary screen (AID 493131); conditions: purified delta FosB, at 25 µM;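 note: fluorescence polarization rise as delta FosB binds a TAMRA Cdk5 AP-1 oligo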
Out of some 340,000 compounds screened, about 3,300 (0.97%) were called active.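 Rule for the calls: active = mean activation above about 17%, with every replicate also reaching it (limit read from the data, passing the limit was not always enough); inconclusive = only one of the two conditions met; inactive = the rest.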 The entries come from a sample that favours actives as a whole.
Your reply should match one of these outcome classes. active, inactive

Ask: Can you look up the reported call for CCN1CCN(c2nc3c(c(=O)[nH]2)CCC3)CC1 for me?
Reply: inactive

Ask: Can you look up the reported call for C=CCN1C(=O)C2(C(C(=O)OCC)=C(N)Oc3c2c(=O)oc2ccccc32)c2ccccc21 (stereo unspecified) for me?
Reply: inactive

Ask: Can you look up the reported call for Cc1ccc(CN2CCCC(C(=O)c3ccc4c(c3)OCO4)C2)cc1C (stereo unspecified) for me?
Reply: inactive

Ask: Can you look up the reported call for COC(=O)C1=C(c2cccc(OCc3ccccc3)c2)C[C@@H]2CC[C@H]1N2C(=O)NNCc1ccccc1 for me?
Reply: inactive

Ask: Can you look up the reported call for N#Cc1ccc(Cn2cc(C(=O)c3ccco3)c3ccccc32)cc1 for me?
Reply: inactive

Ask: Can you look up the reported call for O=c1[nH]c(CN2CC=C(c3ccccc3)CC2)nc2scc(-c3cccs3)c12 for me?
Reply: active
